- Test system: J774A.1 (Mouse BALB/c monocyte macrophage cell line) cells
- EXPERIMENTAL PROTOCOL: LPS-induced TNF-α secretion inhibition in J774A.1 cells
- Format: cell-based
- RECORDED CONDITIONS: J774.A1, 1 μM compound, graded compared to taurodeoxycholic acid (positive control), read-out: TNF-α production inhibition grade
Exercise: for every item that follows, state its recorded inhibition at 1 µM.

INSERT INTO assay_data (molecule, data_value) VALUES
  ('C[C@H](CCC(=O)N[C@@H]1CCCC[C@@H]1S(=O)(=O)O)[C@H]1CC[C@H]2[C@@H]3[C@H](O)C[C@@H]4C[C@H](O)CC[C@]4(C)[C@H]3C[C@H](O)[C@]12C [NC20026]', '< 20%');

For every listed record, write down its inhibition at 1 µM.
1. CC[C@H]1[C@@H](O)[C@@H]2[C@H](CC[C@]3(C)[C@@H]([C@H](C)CCC(=O)N[C@H](CC(C)C)CS(=O)(=O)O)CC[C@@H]23)[C@@]2(C)CC[C@@H](O)C[C@@H]12 [NC40031]
2. C[C@H](CCC(=O)N1CCC[C@@H]1CS(=O)(=O)O)[C@H]1CC[C@H]2[C@@H]3CC[C@@H]4CC(=O)CC[C@]4(C)[C@H]3CC[C@]12C [NC30020]

["< 20%", "< 20%"]
